Each recorded value in this set is attributed to paper PMC6009872.

Target: TcCA (Trypanosoma cruzi, UniProt Q4CVY4)
Construct: gene Tc00.1047053509597.20
Sequence (Q4CVY4 39-638): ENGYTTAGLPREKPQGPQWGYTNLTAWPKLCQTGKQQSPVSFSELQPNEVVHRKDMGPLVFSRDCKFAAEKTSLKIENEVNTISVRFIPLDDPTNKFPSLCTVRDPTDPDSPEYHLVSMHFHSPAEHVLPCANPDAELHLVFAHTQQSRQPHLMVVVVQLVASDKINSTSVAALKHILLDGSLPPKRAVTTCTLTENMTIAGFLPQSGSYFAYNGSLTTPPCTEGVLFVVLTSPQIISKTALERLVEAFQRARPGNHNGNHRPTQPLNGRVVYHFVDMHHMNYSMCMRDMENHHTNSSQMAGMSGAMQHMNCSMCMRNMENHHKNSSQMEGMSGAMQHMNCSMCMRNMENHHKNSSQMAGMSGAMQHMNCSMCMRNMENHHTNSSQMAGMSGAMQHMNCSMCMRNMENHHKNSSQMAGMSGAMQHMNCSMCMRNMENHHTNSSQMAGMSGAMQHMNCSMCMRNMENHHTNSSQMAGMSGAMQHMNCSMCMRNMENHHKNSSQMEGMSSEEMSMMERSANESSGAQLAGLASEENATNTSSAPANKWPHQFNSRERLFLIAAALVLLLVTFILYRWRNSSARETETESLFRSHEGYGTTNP
Test: stopped-flow CO2 hydrase assay
Type: biochemical
Settings: 20 mM Hepes pH 7.5, 20 mM Na2SO4, CO2 1.7-17 mM, 15 min preincubation at room temperature
MEASUREMENT KIND: Ki (µM)

1) OB1OCc2ccc(NC(=S)NCc3ccccc3)cc21 [compound 19, 19] ... 59.6
2) OB1OCc2ccc(NC(=S)Nc3ccc4ccccc4c3)cc21 [compound 16, 16] ... 58.8
3) O=C(Nc1ccc(C(F)(F)F)cc1)Nc1ccc2c(c1)B(O)OC2 [compound 10, 10] ... 60.7
4) OB1OCc2cc(F)ccc21 [Tavaborole, reference compound] ... 60.5
